All figures here come from patent US11111240B2.

// reported pIC50 per item
# target.under.test: IDH1 (R132H) (Homo sapiens (Human), UniProt O75874, R132H)
# Sequence (O75874 whole entry R132H): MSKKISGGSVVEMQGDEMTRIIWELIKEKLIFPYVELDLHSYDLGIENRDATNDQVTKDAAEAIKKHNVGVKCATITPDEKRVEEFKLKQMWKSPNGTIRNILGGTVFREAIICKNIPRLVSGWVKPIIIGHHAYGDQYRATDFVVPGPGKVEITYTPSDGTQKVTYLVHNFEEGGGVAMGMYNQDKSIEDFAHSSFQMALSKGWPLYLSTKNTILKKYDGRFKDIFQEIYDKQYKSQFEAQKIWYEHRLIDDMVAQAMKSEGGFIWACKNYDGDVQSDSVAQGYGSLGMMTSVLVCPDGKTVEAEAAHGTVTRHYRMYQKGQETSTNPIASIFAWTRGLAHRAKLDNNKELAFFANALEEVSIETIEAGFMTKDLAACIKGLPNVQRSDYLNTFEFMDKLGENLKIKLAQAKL
# protocol: Enzyme assay, IDH1m inhibition (NADPH decrease, diaphorase/resazurin)
# protocol.conditions: 40 nM enzyme, 16 h pre-incubation at 23° C.
pIC50: −log10 of the molar value.

Reference set, count: 3
{"compound": "N#Cc1cc(F)cc(N(C(=O)[C@@H]2CCS(=O)(=O)N2c2cc(C#N)ccn2)[C@H](C(=O)NC2CC(F)(F)C2)c2ccccc2Cl)c1", "pIC50": "> 7.70"}
{"compound": "N#Cc1ccnc(N2[C@H](C(=O)N(c3cccc(C(F)(F)F)c3)[C@H](C(=O)NC3CC(F)(F)C3)c3ccccc3Cl)CCS2(=O)=O)c1", "pIC50": "> 7.70"}
{"compound": "N#Cc1ccnc(N2[C@H](C(=O)N(c3cncc(F)c3)[C@H](C(=O)NC3CC(F)(F)C3)c3ccccc3Cl)CCS2(=O)=O)c1", "pIC50": "> 7.70"}

The measured pIC50 associated with `N#Cc1ccnc(N2[C@H](C(=O)N(c3cncc(F)c3)[C@@H](C(=O)NC3CC(F)(F)C3)c3ccccc3Cl)CCS2(=O)=O)c1` reads > 5.00

The reported pIC50 of the compound `O=C(NC1CCCCC1)[C@@H](c1ccccc1Cl)N(C(=O)[C@@H]1CCS(=O)(=O)N1c1ncccn1)c1cccc(F)c1` was > 6.00

Recorded result, `O=C(NC1CCCCC1)[C@@H](c1ccccc1Cl)N(C(=O)[C@@H]1CCS(=O)(=O)N1c1cc(F)ccn1)c1cccc(F)c1` , pIC50: > 5.00

Given item `N#Cc1ccnc(N2[C@H](C(=O)N(c3cc(F)cc(F)c3)[C@@H](C(=O)NC3CC(F)(F)C3)c3ccccc3Cl)CCS2(=O)=O)c1` , the value recorded as its pIC50 is > 6.30

Value of pIC50 reported for the compound `O=C(NC1CCCCC1)[C@H](c1ccccc1Cl)N(C(=O)[C@@H]1CCS(=O)(=O)N1c1cc(F)ccn1)c1cccc(F)c1` is > 7.00

`N#Cc1ccnc(N2[C@H](C(=O)N(c3cccc(F)c3)[C@@H](C(=O)NC3CCC(F)(F)CC3)c3ccccc3Cl)CCS2(=O)=O)c1` yielded pIC50 of > 6.00

So, `N#Cc1ccnc(N2[C@H](C(=O)N(c3cccc(F)c3)[C@H](C(=O)NC3CC(F)(F)C3)c3ccccc3Cl)CCS2(=O)=O)c1` ? Its pIC50 was > 7.70

So, `N#Cc1ccnc(N2[C@H](C(=O)N(c3cc(F)c[n+]([O-])c3)[C@H](C(=O)NC3CC(F)(F)C3)c3ccccc3Cl)CCS2(=O)=O)c1` ? Its pIC50 was 7.70

Entry under test: C#Cc1ccnc(N2[C@H](C(=O)N(c3cccc(F)c3)C(C(=O)NC3CCCCC3)c3ccccc3Cl)CCS2(=O)=O)c1 (stereo partly drawn) . Its pIC50 was > 6.00

Form: compound = `N#Cc1ccnc(N2[C@H](C(=O)N(c3cccc(F)c3)[C@H](C(=O)NC3CC(F)(F)C3)c3ccccc3Cl)CNS2(=O)=O)c1` ; pIC50 = > 7.70

Field pIC50 (entry `N#Cc1ccnc(N2[C@H](C(=O)N(c3ccc(F)c(F)c3)[C@H](C(=O)NC3CC(F)(F)C3)c3ccccc3Cl)CCS2(=O)=O)c1` ) reads > 7.70

The reported value for `N#Cc1ccnc(N2[C@H](C(=O)N(c3cccc(F)c3)[C@H](C(=O)NC3CCCCC3)c3ccccc3Cl)CCS2(=O)=O)c1` in terms of pIC50 is > 7.70

Measured pIC50 of `N#Cc1ccnc(N2[C@H](C(=O)N(c3cccc(F)c3)[C@@H](C(=O)NC3CC(F)(F)C3)c3ccccc3Cl)CCS2(=O)=O)c1` : > 6.30

# compound `N#Cc1ccnc(N2[C@H](C(=O)N(c3cccc(F)c3)[C@H](C(=O)NC3CCC(F)(F)CC3)c3ccccc3Cl)CCS2(=O)=O)c1` ; its pIC50 = > 7.70

What the record says about CN1C[C@@H](C(=O)N(c2cccc(F)c2)C(C(=O)NC2CC(F)(F)C2)c2ccccc2Cl)N(c2cc(C#N)ccn2)S1(=O)=O (stereo partly drawn) : pIC50 is 7.70

For N#Cc1ccnc(N2[C@H](C(=O)N(c3cccc(S(N)(=O)=O)c3)C(C(=O)NC3CCCCC3)c3ccccc3Cl)CCS2(=O)=O)c1 (stereo partly drawn) the compound record lists pIC50 as > 7.70

Record `N#Cc1cc(F)cc(N(C(=O)[C@@H]2CCS(=O)(=O)N2c2cc(C#N)ccn2)[C@@H](C(=O)NC2CC(F)(F)C2)c2ccccc2Cl)c1` , field pIC50: > 6.30

Record `N#Cc1ccnc(N2[C@H](C(=O)N(c3cccc(F)c3)[C@@H](C(=O)NC3CCCCC3)c3ccccc3Cl)CCS2(=O)=O)c1` . Reported pIC50: > 6.30

Summary for this compound, N#Cc1ccnc(NS(=O)(=O)c2cccc(N(C(=O)[C@@H]3CCS(=O)(=O)N3c3cc(C#N)ccn3)C(C(=O)NC3CCCCC3)c3ccccc3Cl)c2)c1 (stereo partly drawn) : pIC50 is > 7.70

Sure, the documented pIC50 for `O=C(NC1CCCCC1)[C@H](c1ccccc1Cl)N(C(=O)[C@@H]1CCS(=O)(=O)N1c1ncccn1)c1cccc(F)c1` is > 7.70

response.value for `N#Cc1ccnc(N2[C@H](C(=O)N(c3cccc(C(F)(F)F)c3)[C@@H](C(=O)NC3CC(F)(F)C3)c3ccccc3Cl)CCS2(=O)=O)c1` (field: pIC50) = > 6.00
